// reported protein stability index for each item listed
B1: SMTNL2 (parent)
chain: QKNFELAFTMAENLANCERLIEVE

Variants of: B1
Assay: protein stability index of a GFP-peptide fusion (GPS, HEK-293T) (PSI 1-6); higher = more stable;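 note: lentivirally expressed fusions sorted by FACS into six bins by GFP to DsRed ratio, PSI derived from sequencing read proportions per bin multiplied by bin number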
Details: c terminus: a fixed tail appended
property name: protein stability index

mutation=N13V reported_value=1.33
mutation=R19H reported_value=1.97
mutation=C17T reported_value=1.39
mutation=C17A reported_value=2.16
mutation=E18C reported_value=2.68
mutation=A11S reported_value=2.79
mutation=E5N reported_value=2.96
mutation=Q1L reported_value=1.86
mutation=E24H reported_value=1.6
mutation=L14C reported_value=3.14
mutation=N16Q reported_value=2.33
mutation=A11N reported_value=2.82
mutation=F8Y reported_value=1.35
mutation=R19A reported_value=1.84
mutation=R19P reported_value=3.57
mutation=K2D reported_value=2.51
mutation=V23Q reported_value=1.3
mutation=Q1D reported_value=1.28
mutation=T9C reported_value=2.03
mutation=F8W reported_value=1.48
mutation=E22I reported_value=2.9
mutation=A15M reported_value=1.92
mutation=R19Q reported_value=1.9
mutation=L14E reported_value=4.23
mutation=E5A reported_value=1.62
mutation=F4R reported_value=3.06
mutation=E12L reported_value=2.69
mutation=R19V reported_value=1.27
mutation=V23G reported_value=2.04
mutation=V23S reported_value=2.25
mutation=N3I reported_value=3.48
mutation=I21P reported_value=4.14
mutation=L20G reported_value=2.97
mutation=F8N reported_value=2.06
mutation=K2R reported_value=2.34
mutation=C17S reported_value=2.28
mutation=R19M reported_value=2.86
mutation=F8G reported_value=4.29
mutation=F8Q reported_value=3.61
mutation=L6R reported_value=3.29
mutation=E18G reported_value=1.84
mutation=I21F reported_value=2.29
mutation=L14N reported_value=2.72
mutation=L20C reported_value=2.1
mutation=A7S reported_value=1.78
mutation=N16C reported_value=1.85
mutation=A11M reported_value=1.49
mutation=L20S reported_value=3.52
mutation=I21G reported_value=3.85
mutation=F4D reported_value=3.72
mutation=R19G reported_value=2.92
mutation=N3E reported_value=1.61
mutation=R19K reported_value=1.52
mutation=A15F reported_value=1.45
mutation=T9Q reported_value=1.89
mutation=Q1N reported_value=1.67
mutation=M10I reported_value=1.57
mutation=C17V reported_value=2.02
mutation=V23I reported_value=1.78
mutation=I21M reported_value=2.61
mutation=L14M reported_value=2.02
mutation=E18K reported_value=2.04
mutation=M10F reported_value=3.08
mutation=E18P reported_value=2.6
mutation=N13F reported_value=2.82
mutation=L20H reported_value=2.69
mutation=L20K reported_value=2.46
mutation=F4P reported_value=4.09
mutation=C17M reported_value=2.83
mutation=E24P reported_value=2.15
mutation=T9V reported_value=2.5
mutation=E12D reported_value=1.8
mutation=L14Q reported_value=3.98
mutation=F4T reported_value=3.51
mutation=E18M reported_value=2.73
mutation=L14S reported_value=3.69
mutation=A11D reported_value=3.85
mutation=M10N reported_value=4.24
mutation=A7F reported_value=1.88
mutation=E18I reported_value=4.4
mutation=L6V reported_value=2.04
mutation=L20W reported_value=1.38
mutation=R19T reported_value=2.61
mutation=A11Q reported_value=1.62
mutation=E22C reported_value=2.79
mutation=L14A reported_value=3.7
mutation=A15I reported_value=1.87
mutation=A11K reported_value=2.29
mutation=E5D reported_value=1.59
mutation=E18S reported_value=2.65
mutation=N16W reported_value=3.51
mutation=L20Y reported_value=2.08
mutation=A7T reported_value=2.2
